Molecular target: CXCR3 (Homo sapiens (Human), UniProt P49682)
Sequence (P49682 whole entry): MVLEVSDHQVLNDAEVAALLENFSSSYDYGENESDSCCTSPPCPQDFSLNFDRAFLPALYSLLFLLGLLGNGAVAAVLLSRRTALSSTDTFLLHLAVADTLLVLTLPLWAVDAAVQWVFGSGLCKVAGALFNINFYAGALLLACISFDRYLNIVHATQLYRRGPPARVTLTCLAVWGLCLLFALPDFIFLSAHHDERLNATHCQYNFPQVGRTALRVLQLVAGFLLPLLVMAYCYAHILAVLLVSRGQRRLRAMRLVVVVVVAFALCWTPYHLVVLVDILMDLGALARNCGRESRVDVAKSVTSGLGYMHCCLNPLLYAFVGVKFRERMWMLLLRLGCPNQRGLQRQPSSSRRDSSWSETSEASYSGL
Assay: Receptor internalization assay
Assay type: cell-based
Settings: human whole blood; final CXCL10 concentration 9 nM; 30 min 37° C.; CXCR3 cell surface expression on CD3 positive cells, flow cytometer; read-out: Internalization IC50
pIC50: −log10 of the molar value.
quantity_kind: pIC50

- test_smiles: "C[C@@H]1CN(c2sc(C(F)(F)F)nc2-c2nc3cncnc3[nH]2)CCN1C(=O)Cn1cnc2cccnc21"
  pIC50: 5.97
- test_smiles: "COc1cc2nc(-c3nc(C(F)(F)F)sc3N3CCN(C(=O)Cn4cnc5cccnc54)[C@H](C)C3)[nH]c2cc1OC"
  pIC50: 6.84

I = Cn1c(=O)n(CC(=O)N2CCN(c3scnc3-c3nc4ccc(OC(F)(F)F)cc4[nH]3)CC2)c2ccccc21
II = Cc1nn(CC(=O)N2CCN(c3sc(C(F)(F)F)nc3-c3nc4ccccc4[nH]3)C[C@H]2C)c(C)c1CN(C)C
Request: Could you please tell me which of these two has the higher pIC50: I or II ? Reply with the label of the item you choose.
Result: II
(II: 7.14, I: 5.98)
